# System: T1, Recombinant human MMR (R&D systems) (human, UniProt P22897 19-1383)
# T1 construct: Bought protein (R&D Systems #2534) coated on ELISA plates; also called hMMR; MRC1
# T1 sequence: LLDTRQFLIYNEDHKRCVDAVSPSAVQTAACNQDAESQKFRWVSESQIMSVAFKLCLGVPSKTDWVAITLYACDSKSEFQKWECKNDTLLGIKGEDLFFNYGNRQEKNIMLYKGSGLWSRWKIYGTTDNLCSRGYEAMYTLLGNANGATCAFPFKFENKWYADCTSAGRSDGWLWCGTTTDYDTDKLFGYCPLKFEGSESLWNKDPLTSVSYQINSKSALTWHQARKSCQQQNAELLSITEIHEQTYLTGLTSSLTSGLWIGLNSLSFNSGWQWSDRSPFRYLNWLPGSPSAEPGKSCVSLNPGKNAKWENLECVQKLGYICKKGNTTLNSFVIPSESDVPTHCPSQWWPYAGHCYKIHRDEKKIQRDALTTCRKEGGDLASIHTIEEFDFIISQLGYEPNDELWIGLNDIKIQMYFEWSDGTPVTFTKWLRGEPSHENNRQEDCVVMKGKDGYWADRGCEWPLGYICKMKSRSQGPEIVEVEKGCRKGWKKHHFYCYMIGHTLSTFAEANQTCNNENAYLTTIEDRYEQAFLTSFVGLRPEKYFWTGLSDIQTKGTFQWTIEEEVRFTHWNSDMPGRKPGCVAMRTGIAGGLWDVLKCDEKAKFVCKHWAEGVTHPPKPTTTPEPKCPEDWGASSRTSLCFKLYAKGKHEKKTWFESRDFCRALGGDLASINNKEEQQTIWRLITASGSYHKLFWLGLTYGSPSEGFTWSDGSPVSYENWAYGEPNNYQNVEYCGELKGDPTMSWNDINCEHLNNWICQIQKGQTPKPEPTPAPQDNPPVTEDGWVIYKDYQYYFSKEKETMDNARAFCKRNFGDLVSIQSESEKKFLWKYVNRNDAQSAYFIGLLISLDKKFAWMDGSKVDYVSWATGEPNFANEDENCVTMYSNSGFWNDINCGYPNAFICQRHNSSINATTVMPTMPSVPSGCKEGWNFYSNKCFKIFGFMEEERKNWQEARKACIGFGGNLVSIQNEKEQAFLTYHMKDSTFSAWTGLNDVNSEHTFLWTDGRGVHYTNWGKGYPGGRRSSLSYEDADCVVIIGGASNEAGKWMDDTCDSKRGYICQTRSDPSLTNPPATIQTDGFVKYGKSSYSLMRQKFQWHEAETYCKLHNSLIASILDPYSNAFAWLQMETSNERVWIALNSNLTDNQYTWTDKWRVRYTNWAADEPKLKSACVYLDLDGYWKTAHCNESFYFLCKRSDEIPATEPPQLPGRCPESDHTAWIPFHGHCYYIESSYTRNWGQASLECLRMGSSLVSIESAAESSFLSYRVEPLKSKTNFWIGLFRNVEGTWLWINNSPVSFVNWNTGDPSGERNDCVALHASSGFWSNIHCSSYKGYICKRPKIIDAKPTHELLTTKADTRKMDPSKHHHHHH
# Procedure Details: PE-ELISA, periplasmic extract on coated human MMR, OD405 at least 3x over milk-blocking proteins

>  <Binder>
NbhMMRm3.1 (VHH, Tested as a periplasmic extract in PE-ELISA) VHH: QVQLQESGGGLVQPGGSLRLSCAASGFTLDYYAIGWFRQAPGKEREGISCISYKGGSTTYADSVKGRFTISKDNAKNTAYLQMNNLKPEDTGIYYCAAGFVCYNYDYWGPGTQVTVSS

>  <binding result>
binds

$$$$
>  <Binder>
NbhMMRm12.6 (VHH, Tested as a periplasmic extract in PE-ELISA) VHH: QVQLQESGGGLVQPGGSLRLSCVVSGSFLSINHMGWYRQVSGEQRELVAAITSGGSTNYADSVKGRFTISRDSAKNTVYLQMNSLKPEDTAVYYCNADALTMLPPFDFWGQGTQVTVSS

>  <binding result>
binds

$$$$
>  <Binder>
NbhMMRm5.38 (VHH, Tested as a periplasmic extract in PE-ELISA) VHH: QVQLQESGGGLVQAGGSLRLSCAASGFTDDDYDIGWFRQAPGKEREGVSCISSSDGSTYYADSVKGRFTISSDNAKNTVYLQMNSLKPEDTAVYYCAADFFRWDSGSYYVRGCRHATYDYWGQGTQVTVSS

>  <binding result>
binds

$$$$
